Just for reference, patent US20090137002A1 is where these values come from.

assay target: T1, myc-tagged human EphB4 on transfected CHO cells (human, UniProt P54760 16-987)
T1 construct: whole, on cells; also called CHO-EphB4; CHO-hEphB4; not shown: myc tag
T1 sequence (looked up): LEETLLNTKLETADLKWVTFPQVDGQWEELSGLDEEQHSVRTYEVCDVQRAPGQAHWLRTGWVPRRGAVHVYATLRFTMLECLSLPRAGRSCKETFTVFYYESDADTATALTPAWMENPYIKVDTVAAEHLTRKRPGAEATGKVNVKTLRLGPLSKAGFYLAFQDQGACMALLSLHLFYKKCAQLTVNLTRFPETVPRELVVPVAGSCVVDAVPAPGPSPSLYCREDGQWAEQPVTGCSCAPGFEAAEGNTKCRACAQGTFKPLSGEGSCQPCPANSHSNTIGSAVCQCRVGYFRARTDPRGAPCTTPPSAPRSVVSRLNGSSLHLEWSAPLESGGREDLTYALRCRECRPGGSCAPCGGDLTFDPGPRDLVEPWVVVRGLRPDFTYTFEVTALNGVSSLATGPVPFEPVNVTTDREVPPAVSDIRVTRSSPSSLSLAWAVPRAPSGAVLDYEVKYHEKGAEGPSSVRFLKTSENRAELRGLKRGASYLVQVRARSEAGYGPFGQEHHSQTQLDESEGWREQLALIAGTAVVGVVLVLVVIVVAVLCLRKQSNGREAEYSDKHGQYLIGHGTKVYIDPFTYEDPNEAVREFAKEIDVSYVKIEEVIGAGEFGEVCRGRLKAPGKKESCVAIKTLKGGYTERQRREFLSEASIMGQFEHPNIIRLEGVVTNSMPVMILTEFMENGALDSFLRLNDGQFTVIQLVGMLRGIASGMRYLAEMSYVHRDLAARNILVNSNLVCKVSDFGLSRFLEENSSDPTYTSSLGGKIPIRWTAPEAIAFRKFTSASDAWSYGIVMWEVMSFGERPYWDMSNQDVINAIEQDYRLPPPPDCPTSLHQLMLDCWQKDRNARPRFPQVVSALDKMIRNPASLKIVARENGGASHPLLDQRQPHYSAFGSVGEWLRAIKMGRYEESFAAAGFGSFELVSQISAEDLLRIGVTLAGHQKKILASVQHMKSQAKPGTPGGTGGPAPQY
assay explanation: FACS titration of IgG4-Pro on CHO-EphB4 cells
measured endpoint: EC50 (pM)
Respond numerically; units are pM and should not be typed.

Solved cases (3 shown):
binder	EC50 (pM)
MOR07956 IgG4-Pro (antibody, V domains shown, Fab MOR07956 converted into human IgG4-Pro format) VH: QVELVQSGAEVKKPGSSVKVSCKASGGTFSTYAISWVRQAPGQGLEWMGKIIPIFGDADYAQKFQGRVTITADESTSTAYMELSSLRSEDTAVYYCARSSYTILTTYYNYNAMDNWGQGTLVTVSS VL: DIQMTQSPSSLSASVGDRVTITCRASQNINNFLNWYQQKPGKAPKLLIYGSSILQSGVPSRFSGSGSGTDFTLTISSLQPEDFATYYCQQYDFYLSGTFGQGTKVEIKR	340
MOR07955 IgG4-Pro (antibody, V domains shown, Fab MOR07955 converted into human IgG4-Pro format) VH: QVELVQSGAEVKKPGSSVKVSCKASGGTFSTYAISWVRQAPGQGLEWMGKIIPIFGDADYAQKFQGRVTITADESTSTAYMELSSLRSEDTAVYYCARSSYTILTTYYNYNAMDNWGQGTLVTVSS VL: DIQMTQSPSSLSASVGDRVTITCRASQNINNFLNWYQQKPGKAPKLLIYGSSILQSGVPSRFSGSGSGTDFTLTISSLQPEDFATYYCSQDHFYPPSGTFGQGTKVEIKR	510
MOR07728 IgG4-Pro (antibody, V domains shown, Fab MOR07728 converted into human IgG4-Pro format) VH: QVELVQSGAEVKKPGSSVKVSCKASGGTFSTYAISWVRQAPGQGLEWMGRIIPIFGTANYAQKFQGRVTITADESTSTAYMELSSLRSEDTAVYYCARSSYTILTTYYNYNAMDNWGQGTLVTVSS VL: DIQMTQSPSSLSASVGDRVTITCRASQNINNFLNWYQQKPGKAPKLLIYGSSILQSGVPSRFSGSGSGTDFTLTISSLQPEDFATYYCQQNDFYSPSTFGQGTKVEIKR	1580

Looking for the measured EC50 of MOR07957 IgG4-Pro (antibody, V domains shown, Fab MOR07957 converted into human IgG4-Pro format) VH: QVELVQSGAEVKKPGSSVKVSCKASGGTFSTYAISWVRQAPGQGLEWMGQIIPIFGDADYAQKFQGRVTITADESTSTAYMELSSLRSEDTAVYYCARSSYTILTTYYNYNAMDNWGQGTLVTVSS VL: DIQMTQSPSSLSASVGDRVTITCRASQNINNFLNWYQQKPGKAPKLLIYGSSILQSGVPSRFSGSGSGTDFTLTISSLQPEDFATYYCQQNDFYSPSTFGQGTKVEIKR , can you help?
360
